# system.tested: T1, recombinant human ROR1-His (Sino Biological, 13968-H08H) (human, UniProt Q01973 30-406)
# T1 construct: extracellular domain; Bought protein; also called ROR1-HIS protein; not shown: His tag
# method.notes: BLI (Octet), ROR1-His on Anti-Penta-His or AR2G biosensor, IgG 30 to 0.021 nM, 1:1 fit
# reported koff; entries follow
Kindly provide the numeric value in s⁻¹ only, without the unit symbol.

Here are 3 binders together with their reported answers.
binder="anti-ROR1 IgG antibody DG6 (antibody, V domains shown, Full IgG form (human IgG1 constant region, lambda light chain), expressed in CHO-S cells) VH: EVQLLESGGGLVQPGGSLRLSCAASGFTFSDYDMSWVRQAPGKGLEWVSVISPDGGSIYYADSVKGRFTISRDNSKNTLYLQMNSLRAEDTAVYYCARDVVECNMNPCSYDNAMDVWGQGTLVTVSS VL: QSVLTQPPSASGTPGQRVTISCSGSSSNIGSNYVSWYQQLPGTAPKLLIYDDSHRPSGVPDRFSGSKSGTSASLAISGLRSEDEADYYCGAWDDSLSGYVFGGGTKLTVLG" value_reported=0.000338
binder="anti-ROR1 IgG antibody A2F3 (antibody, V domains shown, Full IgG form (human IgG1 constant region, lambda light chain), expressed in CHO-S cells) VH: EVQLLESGGGLVQPGGSLRLSCAASGFTFSSYDMSWVRQAPGKGLEWVSWISPGGGSKYYADSVKGRFTISRDNSKNTLYLQMNSLRAEDTAVYYCARVNGRFDYWGQGTLVTVSS VL: QSVLTQPPSASGTPGQRVTISCSGSSSNIGNNNVSWYQQLPGTAPKLLIYADSHRPSGVPDRFSGSKSGTSASLAISGLRSEDEADYYCATWDYSLSGYVFGGGTKLTVLG" value_reported=3.31e-05
binder="anti-ROR1 IgG antibody CC9 (antibody, V domains shown, Full IgG form (human IgG1 constant region, lambda light chain), expressed in CHO-S cells) VH: EVQLLESGGGLVQPGGSLRLSCAASGFTFSSYDMSWVRQAPGKGLEWVSGISHGSGNKYYADSVKGRFTISRDNSKNTLYLQMNSLRAEDTAVYYCAKRLSLRRRPSYYSDNAMDVWGQGTLVTVSS VL: QSVLTQPPSASGTPGQRVTISCTGSSSNIGNNAVNWYQQLPGTAPKLLIYYDSNRPSGVPDRFSGSKSGTSASLAISGLRSEDEADYYCGAWDDSLSGYVFGGGTKLTVLG" value_reported=0.000551

Next:
Looking for the measured koff of anti-ROR1 IgG antibody A2F2 (antibody, V domains shown, Full IgG form (human IgG1 constant region, lambda light chain), expressed in CHO-S cells) VH: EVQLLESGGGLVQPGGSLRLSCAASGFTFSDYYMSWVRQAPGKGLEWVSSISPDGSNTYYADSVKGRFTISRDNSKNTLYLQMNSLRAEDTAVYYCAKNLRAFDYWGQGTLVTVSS VL: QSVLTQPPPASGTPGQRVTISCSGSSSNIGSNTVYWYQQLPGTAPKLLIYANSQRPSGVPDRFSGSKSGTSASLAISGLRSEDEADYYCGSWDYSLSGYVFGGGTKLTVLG , can you help?
0.000119

Hey, just so you know, these numbers are from patent US20210069342A1.
